Origin of the recorded values: patent US9067935B2

Biological target: canine TRPM8 (Canis lupus familiaris)
Sequence (Q1A7N1 1-1104): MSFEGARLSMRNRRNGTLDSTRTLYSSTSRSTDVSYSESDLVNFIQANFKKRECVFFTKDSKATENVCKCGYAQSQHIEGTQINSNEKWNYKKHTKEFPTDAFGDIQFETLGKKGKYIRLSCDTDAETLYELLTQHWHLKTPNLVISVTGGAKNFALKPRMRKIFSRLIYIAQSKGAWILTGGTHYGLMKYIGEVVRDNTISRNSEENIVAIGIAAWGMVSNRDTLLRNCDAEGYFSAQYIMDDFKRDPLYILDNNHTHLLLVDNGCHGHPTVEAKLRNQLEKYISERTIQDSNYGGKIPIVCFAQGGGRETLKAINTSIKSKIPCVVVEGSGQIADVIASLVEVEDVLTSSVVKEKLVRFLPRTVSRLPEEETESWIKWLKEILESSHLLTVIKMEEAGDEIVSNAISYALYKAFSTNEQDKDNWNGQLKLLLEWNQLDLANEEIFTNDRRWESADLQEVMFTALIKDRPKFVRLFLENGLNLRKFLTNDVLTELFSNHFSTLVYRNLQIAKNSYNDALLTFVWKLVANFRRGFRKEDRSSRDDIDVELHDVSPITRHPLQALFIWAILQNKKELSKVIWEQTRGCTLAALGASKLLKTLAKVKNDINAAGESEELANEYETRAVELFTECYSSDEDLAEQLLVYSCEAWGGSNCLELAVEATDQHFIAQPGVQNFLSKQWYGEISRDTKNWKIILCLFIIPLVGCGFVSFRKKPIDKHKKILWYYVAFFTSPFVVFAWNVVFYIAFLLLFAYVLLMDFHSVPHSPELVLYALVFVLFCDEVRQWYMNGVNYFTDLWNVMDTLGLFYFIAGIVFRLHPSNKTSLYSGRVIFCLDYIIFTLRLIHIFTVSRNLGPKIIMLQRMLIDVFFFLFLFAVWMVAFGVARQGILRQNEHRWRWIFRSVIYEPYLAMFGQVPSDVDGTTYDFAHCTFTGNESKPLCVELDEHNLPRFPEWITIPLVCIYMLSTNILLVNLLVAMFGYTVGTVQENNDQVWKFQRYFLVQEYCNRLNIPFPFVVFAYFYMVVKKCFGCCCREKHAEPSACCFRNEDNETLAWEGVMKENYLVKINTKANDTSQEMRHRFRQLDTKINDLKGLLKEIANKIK
Test: In Vitro Canine TRPM8 Functional Assay (intracellular Ca2+ fluorescence, icilin challenge)
Details: HEK293 cells stably expressing canine TRPM8; icilin at ~80% maximal response
MEASUREMENT_NAME: IC50 (nM)

a. O=S(=O)(c1ccccc1)N(Cc1ccc(C(F)(F)F)c(F)c1)c1nc2ccccn2c1Br [Compound 25]
b. O=S(=O)(c1ccc(-n2cccn2)cc1)N(Cc1cccc(C(F)(F)F)c1)c1nc2ccccn2c1Cl [Compound 99]
query: Smaller IC50 value, a vs b ? # respond with the chosen item's label
result: a

A. O=S(=O)(c1ccccc1)N(Cc1ccc(F)cc1)c1nc2ccc(Cl)cn2c1Cl [Compound 16]
B. Cc1cccn2c(C)c(N(Cc3ccc(C(F)(F)F)cc3)S(=O)(=O)c3ccccc3)nc12 [Compound 33]
query: Smaller IC50 value, A vs B ? # respond with the chosen item's label
result: B
(B: 26.7 nM, A: 72 nM)

I. O=S(=O)(c1ccc(N2CCOCC2)nc1)N(Cc1ccc(C(F)(F)F)c(F)c1)c1nc2ccc(Cl)cn2c1Cl [Compound 74]
II. O=S(=O)(c1ccccc1)N(Cc1ccc(C(F)(F)F)c(F)c1)c1nc2ccccn2c1C1CC1 [Compound 70]
query: # returns the entry with the larger IC50; inputs I and II # respond with the chosen item's label
result: I
(I: 62.6 nM, II: 8.21 nM)
